biological target: UniProt:P52333; test: Biochemical JAK3 kinase assay (LanthaScreen); set-up: GST; purchased Life Technologies; conditions: read-out: JAK 3 (pKi) (converted)
Reported endpoint: Ki

# Molecule, Ki
measured = [
    ("C=CC(=O)N1CC(C#N)(C(=O)Nc2cc(-c3ccc(O)cc3)cc3[nH]ncc23)C1", "0.1 to 1 nM"),
]

State the recorded Ki for every item in the following list.
1. C=CC(=O)N1CC(COc2cc(-c3ccc(O)cc3)cc3[nH]ncc23)C1
2. CN(C)C/C=C/C(=O)N1CC(F)(C(=O)Nc2cc(-c3ccc(O)cc3)cc3[nH]ncc23)C1
3. C=CC(=O)N1C[C@@H](C)O[C@@H](C(=O)Nc2cc(-c3ccc(O)cc3)cc3[nH]ncc23)C1
4. C=CC(=O)N1CC(F)(COc2nc(-c3ccc(O)c(Cl)c3)nc3[nH]ncc23)C1
5. Cc1n[nH]c2cc(-c3ccc(O)cc3)cc(OCC3CN(C(=O)/C=C/CN(C)C)C3)c12
6. C=CC(=O)N1CCC(Oc2cc(-c3ccc(O)cc3)cc3[nH]ncc23)C(F)(F)C1 (centres unmarked)
7. C=CC(=O)N1CC[C@H](Oc2cc(-c3ccc(O)cc3)cc3[nH]nc(N(C)C)c23)C1
8. CN(C)C/C=C\C(=O)N1CC(COc2cc(-c3ccc(O)c(Cl)c3)cc3[nH]ncc23)C1

Result:
1. 0.1 to 1 nM
2. 0.1 to 1 nM
3. < 0.1 nM
4. < 0.1 nM
5. < 0.1 nM
6. < 0.1 nM
7. 0.1 to 1 nM
8. < 0.1 nM

State the recorded Ki for every item in the following list.
1. C=CC(=O)N1CC(C(=O)Nc2cc(-c3ccc(O)cc3)cc3[nH]ncc23)C1
2. CN(C)C/C=C/C(=O)N1CC[C@H]1COc1cc(-c2ccc(O)cc2)cc2[nH]ncc12
3. C=CC(=O)N1CC(C)(C(=O)Nc2cc(-c3ccc(O)cc3)cc3[nH]ncc23)C1
4. C=CC(=O)N1CC[C@H](Oc2cc(-c3ccc(O)c(Cl)c3)cc3[nH]nc(SC)c23)C1
5. C=C(CN(C)C)C(=O)N1CC(COc2nc(-c3ccc(O)cc3)nc3[nH]ncc23)C1
6. CN(C)C/C=C/C(=O)N1CC(C#N)(COc2cc(-c3ccc(O)c(Cl)c3)cc3[nH]ncc23)C1
7. COC1CN(C/C=C/C(=O)N2CC(COc3cc(-c4ccc(O)cc4)cc4[nH]ncc34)C2)C1

Result:
1. < 0.1 nM
2. 0.1 to 1 nM
3. 0.1 to 1 nM
4. 0.1 to 1 nM
5. 0.1 to 1 nM
6. 0.1 to 1 nM
7. 0.1 to 1 nM

Request: Indicate its recorded Ki; the molecule in question is C=CC(=O)N1CC(COc2cc(-c3ccc(O)c(F)c3)cc3[nH]nc(C)c23)C1
Result: 0.1 to 1 nM

---

molecular target: UniProt:P52333; test: Biochemical JAK3 kinase assay (LanthaScreen); design: GST; purchased Life Technologies; conditions: read-out: JAK 3 (pKi) (converted)
Reported endpoint: Ki

Worked set:
# Compound, Tested system, Reported endpoint, Observed value
records = [
    ("C=CC(=O)N1CCC[C@H](Sc2cc(-c3ccc(O)cc3)cc3[nH]ncc23)C1 [Compound 12-6]", "UniProt:P52333", "Ki", "0.1 to 1 nM"),
    ("C=CC(=O)N1CC[C@H](Oc2nc(-c3ccc(O)c(F)c3)cc3[nH]nc(C)c23)C1 [Compound 1-36]", "UniProt:P52333", "Ki", "0.1 to 1 nM"),
]

Request: Provide Ki, tested on UniProt:P52333, for C=CC(=O)N1CC(C)(COc2cc(-c3ccc(O)c(F)c3)cc3[nH]ncc23)C1 [Compound 3-12] .
Result: 0.1 to 1 nM

---

Task for the reader: assign each of the following compounds its reported Ki.
Target: JAK3 (Homo sapiens, UniProt P52333)
Sequence (P52333 1-1124): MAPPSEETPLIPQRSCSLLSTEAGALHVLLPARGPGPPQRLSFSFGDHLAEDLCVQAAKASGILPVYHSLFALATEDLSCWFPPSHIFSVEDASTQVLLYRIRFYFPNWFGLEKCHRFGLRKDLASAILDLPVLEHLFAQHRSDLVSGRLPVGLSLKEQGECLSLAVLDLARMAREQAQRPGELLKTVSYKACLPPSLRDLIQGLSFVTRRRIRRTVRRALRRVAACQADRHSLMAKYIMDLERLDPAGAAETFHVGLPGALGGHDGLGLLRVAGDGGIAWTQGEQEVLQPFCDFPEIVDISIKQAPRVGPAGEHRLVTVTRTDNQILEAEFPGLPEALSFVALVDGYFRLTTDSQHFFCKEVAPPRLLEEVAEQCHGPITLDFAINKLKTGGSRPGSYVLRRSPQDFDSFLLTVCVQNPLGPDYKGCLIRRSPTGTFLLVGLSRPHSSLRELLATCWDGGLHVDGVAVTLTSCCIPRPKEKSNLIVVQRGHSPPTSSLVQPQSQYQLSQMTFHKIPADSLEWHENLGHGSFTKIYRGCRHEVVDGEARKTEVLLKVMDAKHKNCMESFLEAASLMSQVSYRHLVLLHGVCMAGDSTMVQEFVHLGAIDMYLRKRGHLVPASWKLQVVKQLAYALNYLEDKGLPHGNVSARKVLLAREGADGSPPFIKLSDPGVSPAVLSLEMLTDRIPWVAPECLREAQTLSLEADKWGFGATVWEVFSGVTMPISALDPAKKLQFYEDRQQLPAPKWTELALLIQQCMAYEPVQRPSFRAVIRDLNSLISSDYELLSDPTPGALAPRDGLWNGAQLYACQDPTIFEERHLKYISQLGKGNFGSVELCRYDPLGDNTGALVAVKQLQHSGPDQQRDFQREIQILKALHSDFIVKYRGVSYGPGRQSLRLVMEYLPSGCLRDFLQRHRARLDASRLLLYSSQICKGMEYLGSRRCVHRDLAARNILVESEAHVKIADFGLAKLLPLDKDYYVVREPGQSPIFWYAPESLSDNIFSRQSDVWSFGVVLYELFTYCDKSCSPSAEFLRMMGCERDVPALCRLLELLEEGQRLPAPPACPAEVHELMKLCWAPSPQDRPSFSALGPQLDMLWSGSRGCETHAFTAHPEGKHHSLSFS
Assay: Biochemical JAK3 kinase assay (LanthaScreen)
Design: GST; purchased Life Technologies
Conditions: read-out: JAK 3 (pKi) (converted)

# Compound, Reported endpoint, Observed value
data = [
    ("CN(C)C/C=C/C(=O)N1CC[C@H](Oc2nc(-c3ccc(O)c(F)c3)cc3[nH]ncc23)C1", "Ki", "100 to 1000 pM"),
]

State the recorded Ki for every item in the following list.
1. COC1(COc2cc(-c3ccc(O)c(Cl)c3)cc3[nH]ncc23)CN(C(=O)/C=C/CN(C)C)C1
2. CN(C)C/C=C/C(=O)N1CC(COc2cc(-c3ccc(O)c(F)c3)cc3[nH]ncc23)C1
3. C=CC(=O)N1CC(COc2cc(-c3ccc(O)cc3)cc3[nH]nc(SC)c23)C1
4. C=CC(=O)N1CC(COc2cc(-c3ccc(O)c(Cl)c3)cc3[nH]ncc23)C1
5. C=CC(=O)N1CC[C@H](Oc2cc(-c3ccc(O)c(F)c3)cc3[nH]nc(C)c23)C1
6. C=CC(=O)N1CCSC(C(=O)Nc2cc(-c3ccc(O)cc3)cc3[nH]ncc23)C1 (stereo not drawn) [Compound 12-42]
7. C=CC(=O)N1CCS[C@@H](C(=O)Nc2cc(-c3ccc(O)cc3)cc3[nH]ncc23)C1

Result:
1. 100 to 1000 pM
2. < 100 pM
3. < 100 pM
4. 100 to 1000 pM
5. 100 to 1000 pM
6. 100 to 1000 pM
7. < 100 pM

Request: Provide Ki, tested on JAK3 (Homo sapiens, UniProt P52333), for C=CC(=O)N1C[C@@H](Oc2cc(-c3ccc(O)cc3)cc3[nH]ncc23)C[C@@H]1C .
Result: 100 to 1000 pM
